Listed next: entries and their corresponding Fibrin % cell toxicity.
System: primary rat microglia
Experiment: Cell toxicity (dead cells, size <150 μm2) in coated fibrin (cFib) assay;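 note: share of dead cells sized under 150 µm2 at 10 µM in fibrin-stimulated microglia HTS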
Conditions: primary microglia HTS, fibrin stimulation; decreased size (<150 μm^2) as marker of toxicity
Where a name gives a salt, the structure may show the parent alone.
Write the answer as a number in %, unit excluded.

Take a look at these entries with their results.
>>> quantitative_result("COC(=O)C[C@](O)(CCCC(C)(C)O)C(=O)O[C@@H]1C(OC)=C[C@]23CCCN2CCc2cc4c(cc2[C@H]13)OCO4")
90
>>> quantitative_result("CC(=O)OCC(=O)[C@@]1(O)CC[C@H]2[C@@H]3CCC4=CC(=O)C=C[C@]4(C)[C@@]3(Cl)[C@@H](Cl)C[C@@]21C [Dichlorisone acetate, reference compound]")
3
>>> quantitative_result("Cc1onc(-c2ccccc2)c1C(=O)N[C@@H]1C(=O)N2[C@@H]1SC(C)(C)[C@@H]2C(=O)[O-].[Na+] [Oxacillin Sodium]")
0

// query Fill in: Fibrin % cell toxicity of CN1C(CCl)Nc2cc(Cl)c(S(N)(=O)=O)cc2S1(=O)=O (stereo not shown) [Methyclothiazide] is ___
// result 1

// query Fill in: Fibrin % cell toxicity of Cc1ccc(S(=O)(=O)NC(=O)NN2CCCCCC2)cc1 [Tolazamide, reference compound] is ___
// result 1

// query Fill in: Fibrin % cell toxicity of CC(=O)OCC(=O)[C@@]1(O)CC[C@H]2[C@@H]3CCC4=CC(=O)CC[C@]4(C)[C@H]3[C@@H](O)C[C@@]21C [Hydrocortisone acetate, reference compound] is ___
// result 4

// query Fill in: Fibrin % cell toxicity of COc1ccc(-n2nc(CCC(=O)N(C)O)cc2-c2ccc(Cl)cc2)cc1 [Tepoxalin, reference compound] is ___
// result 1

// query Fill in: Fibrin % cell toxicity of CN(C)CCOC(=O)COc1ccc(Cl)cc1 [Meclofenoxate] is ___
// result 1

// query Fill in: Fibrin % cell toxicity of CC(=O)NCc1c(I)c(NC(C)=O)c(I)c(C(=O)O)c1I [Iodamide] is ___
// result 0

// query Fill in: Fibrin % cell toxicity of "C[C@@H](O)[C@H]1C(=O)N2C(C(=O)O)=C(S[C@@H]3CN[C@H](C(=O)N(C)C)C3)[C@H](C)[C@H]12" is ___
// result 1

// query Fill in: Fibrin % cell toxicity of CC(=O)OCC(=O)[C@@]12OC3(CCCC3)O[C@@H]1C[C@H]1[C@@H]3CCC4=CC(=O)C=C[C@]4(C)[C@@]3(F)[C@@H](O)C[C@@]12C [Amcinonide] is ___
// result 7

// query Fill in: Fibrin % cell toxicity of CC(CCc1ccccc1)NC(C)C(O)c1ccc(O)cc1 (stereo not shown) [Nylidrin hydrochloride, reference compound] is ___
// result 0

// query Fill in: Fibrin % cell toxicity of CN(C)[C@@H]1C(O)=C(C(N)=O)C(=O)[C@@]2(O)C(O)=C3C(=O)c4c(O)ccc(Cl)c4[C@@H](O)[C@H]3C[C@@H]12 [Demeclocycline hydrochloride, reference compound] is ___
// result 1

Attribution: patent US20210330611A1
